Test system: TGF-β
Experiment: AlphaScreen SureFire p-SMAD3 (Ser423/425) assay, TGF-β-stimulated cells
Format: cell-based
Conditions: Mus musculus; p-SMAD3 (Ser423/425) AlphaScreen in cell lysate; MPC-11; TGF-β stimulation; read-out: TGF-β: inhibition of TGF-β signaling, TGF-β pSMAD (MPC-11)
quantityKind: IC50

structureString | targetEntity | IC50
Cc1cccc(-c2nc3occn3c2-c2ccc3nccn3c2)c1 | TGF-β | < 50 nM
Fc1cc(F)c(F)c(-c2nc3n(c2-c2ccc4ncccc4c2)CCN3)c1 | TGF-β | < 50 nM
Cc1ccc(F)c(-c2nc3n(c2-c2ccc4ncccc4c2)CCC3)c1 | TGF-β | 100 to 1000 nM
Fc1cccc(F)c1-c1nc2n(c1-c1ccc3nccnc3c1)CCC2 | TGF-β | > 1000 nM

## Task # IC50 lookup, item `Cc1c(F)ccc(-c2nc3n(c2-c2ccc4ncnn4c2)CCC3)c1Cl`
## Result > 1000 nM

* * *

# reported IC50; entries follow
System: TGF-β
Experiment: AlphaScreen SureFire p-SMAD3 (Ser423/425) assay, TGF-β-stimulated cells
Assay type: cell-based
Conditions: Mus musculus; p-SMAD3 (Ser423/425) AlphaScreen in cell lysate; MPC-11; TGF-β stimulation; read-out: TGF-β: inhibition of TGF-β signaling, TGF-β pSMAD (MPC-11)

molecule | IC50
Fc1ccc(-c2nc3n(c2-c2ccc4ncccc4c2)CCC3)cc1Cl [Compound 267] | 0.1 to 1 µM
Cc1cccc(-c2nc3n(c2-c2ccc4nccn4c2)CCC3)c1 [Compound 1] | 0.1 to 1 µM
Clc1ccc(Cl)c(-c2nc3n(c2-c2ccc4nccnc4c2)CCC3)c1 [Compound 348] | 0.05 to 0.1 µM
Fc1cc(F)c(-c2nc3n(c2-c2ccc4nccnc4c2)CCN3)cc1F [Compound 106] | < 0.05 µM
Cc1ccc(F)cc1-c1nc2n(c1-c1ccc3ncccc3c1)CCC2 [Compound 303] | > 1 µM

## Task # IC50 lookup, item Cc1cc(-c2nc3n(c2-c2ccc4ncccc4c2)CCC3)cc(C)c1Cl [Compound 246]
## Result > 1 µM

* * *

Test system: TGF-β
Test: AlphaScreen SureFire p-SMAD3 (Ser423/425) assay, TGF-β-stimulated cells
Type: cell-based
Conditions: Mus musculus; p-SMAD3 (Ser423/425) AlphaScreen in cell lysate; MPC-11; TGF-β stimulation; read-out: TGF-β: inhibition of TGF-β signaling, TGF-β pSMAD (MPC-11)
Excerpt: The p-SMAD-3 (Ser423/425) SureFire® assay has been designed to measure the phosphorylation of endogenous cellular p-SMAD-3 (Ser423/425) in cell lysates and is a system for the screening of both modulators of receptor activation (e.g. agonists and antagonists) as well as agents acting intracellularly, such as small molecule inhibitors of upstream events. The assay will measure p-SMAD-3 (Ser423/425) activation by either cloned or endogenous receptors, and can be applied to primary cells. […]
quantityKind: IC50

Previously resolved entries follow.
compound | result
Fc1cc(Cl)c(-c2nc3n(c2-c2ccc4ncccc4c2)CCC3)cc1F | > 1000 nM
Fc1ccccc1-c1nc2n(c1-c1ccc3nccnc3c1)CCC2 | > 1000 nM
Fc1cc(F)c(-c2nc3n(c2-c2ccc4ncnn4c2)CCC3)cc1Cl | < 50 nM

## Task # IC50 lookup, item `Fc1ccc(-c2nc3occn3c2-c2ccc3ncsc3c2)cc1`
## Result < 50 nM

## Task # IC50 lookup, item `Cc1ccccc1-c1nc2n(c1-c1ccc3nccnc3c1)CCC2`
## Result > 1000 nM

## Task # IC50 lookup, item `Fc1cc(F)c(-c2nc3n(c2-c2ccc4ncc(OCCN5CCOCC5)nc4c2)CCN3)cc1F`
## Result 100 to 1000 nM

## Task # IC50 lookup, item `Fc1ccc(-c2nc3n(c2-c2ccc4ncnn4c2)CCC3)cc1Cl`
## Result 100 to 1000 nM

## Task # IC50 lookup, item `Fc1cc(F)c(F)c(-c2nc3n(c2-c2cc4cnccc4s2)CCC3)c1`
## Result 100 to 1000 nM

## Task # IC50 lookup, item `Cc1cc(-c2nc3n(c2-c2ccc4ncccc4c2)CCC3)cc(C)c1F`
## Result > 1000 nM

## Task # IC50 lookup, item `Fc1ccc(-c2nc3occn3c2-c2ccc3nccn3c2)c(F)c1`
## Result 50 to 100 nM

## Task # IC50 lookup, item `Fc1cccc(-c2nc3n(c2-c2ccc4nccn4c2)CCC3)c1`
## Result > 1000 nM

## Task # IC50 lookup, item `Cc1cc(-c2nc3n(c2-c2ccc4nccn4c2)CCC3)c(F)cc1F`
## Result 50 to 100 nM

Where these numbers come from: patent US10696693B2
